System: Saccharomyces cerevisiae
method-description: Antimicrobial activity against Saccharomyces cerevisiae ATCC 18824 at 200 ug/mL
Type: functional, organism-based
Activity calls are given as the source filed them. The rule behind the calls is not given here.
outcome-measure: Activity

Summary for this molecule, CC1=CCC[C@H]2[C@](C)(CC/C(C)=C/Cn3c[n+](C)c4ncnc(N)c43)[C@@H](C)CC[C@@]12C : Activity is inactive

The value of Activity measured for the molecule C/C(=C\Cn1c[n+](C)c2ncnc(N)c21)CC[C@]1(C)[C@@H](C)CC[C@@]2(C)C(CO)=CCC[C@@H]12 turned out to be inactive

Measured Activity of C/C(=C\Cn1c[n+](C)c2ncnc(N)c21)CC[C@]1(C)[C@@H](C)CC[C@@]2(C)C(COC(=O)c3ccc[nH]3)=CCC[C@@H]12 : inactive
